assay: Half-life values were derived from the decay rate constant (k) by fitting the concentration and time values to the exponential decay function at pH 7; type: ADME
half-life reference

molecule	readout_label	reported_value
CN(C)C(=O)OC[n+]1cccc([C@H]2SCc3c(C(=O)c4cn(C(=O)N(C)C)c5cc(-c6ccc(F)cc6)ccc45)ccn32)c1.[Cl-]	half-life	> 167 h

stdin: Which value of half-life has been reported for CC(OC(=O)C(C)(C)C)[n+]1cccc([C@H]2SCc3c(C(=O)c4cn(C(=O)N(C)C)c5cc(-c6ccc(F)cc6)ccc45)ccn32)c1.[Cl-] (stereo partly drawn) in the records?
stdout: 17.6 h

stdin: Which value of half-life has been reported for `COC(=O)[C@@H]1CCCN1C(=O)OC[n+]1cccc([C@H]2SCc3c(C(=O)c4cn(C(=O)N(C)C)c5cc(-c6ccc(F)cc6)ccc45)ccn32)c1.[Cl-]` in the records?
stdout: 128 h

---

test: Half-life values were derived from the decay rate constant (k) by fitting the concentration and time values to the exponential decay function at pH 7; format: ADME
half-life reference
Number only, in min; omit the unit.

Worked examples follow.
mol	reported_value
CN(C)C(=O)n1cc(C(=O)c2ccn3c2CS[C@@H]3c2ccc[n+](COC(=O)C(C)(C)C)c2)c2ccc(-c3ccc(F)cc3)cc21.[Cl-]	2720
CC(=O)OC[n+]1cccc([C@H]2SCc3c(C(=O)c4cn(C(=O)N(C)C)c5cc(-c6ccc(F)cc6)ccc45)ccn32)c1.[Cl-]	540
Cc1oc(=O)oc1C[n+]1cccc([C@H]2SCc3c(C(=O)c4cn(C(=O)N(C)C)c5cc(-c6ccc(F)cc6)ccc45)ccn32)c1.[Cl-]	246
CN(C)C(=O)n1cc(C(=O)c2ccn3c2CS[C@@H]3c2ccc[n+](COC(=O)c3ccccc3)c2)c2ccc(-c3ccc(F)cc3)cc21.[Cl-]	510

Moving on to the next compound.
stdin: Which value of half-life has been reported for `COC(=O)OC[n+]1cccc([C@H]2SCc3c(C(=O)c4cn(C(=O)N(C)C)c5cc(-c6ccc(F)cc6)ccc45)ccn32)c1.[Cl-]` in the records?
stdout: 96

---

test: The rate of hydrolytic cleavage in plasma was assessed by incubating compounds (30 uM) at 37 degrees Celsius with human plasma adjusted to pH 7; type: ADME
readout_label: half-life at 30 µM

Worked examples follow.
mol	half-life at 30 µM
COC(=O)OC[n+]1cccc([C@H]2SCc3c(C(=O)c4cn(C(=O)N(C)C)c5cc(-c6ccc(F)cc6)ccc45)ccn32)c1.[Cl-]	1 min
CN(C)C(=O)n1cc(C(=O)c2ccn3c2CS[C@@H]3c2ccc[n+](COC(=O)c3ccccc3)c2)c2ccc(-c3ccc(F)cc3)cc21.[Cl-]	1 min
CC(=O)OC[n+]1cccc([C@H]2SCc3c(C(=O)c4cn(C(=O)N(C)C)c5cc(-c6ccc(F)cc6)ccc45)ccn32)c1.[Cl-]	2.6 min
CN(C)C(=O)OC[n+]1cccc([C@H]2SCc3c(C(=O)c4cn(C(=O)N(C)C)c5cc(-c6ccc(F)cc6)ccc45)ccn32)c1.[Cl-]	> 600 min

Moving on to the next molecule.
stdin: Which value of half-life at 30 µM has been reported for `CN(C)C(=O)n1cc(C(=O)c2ccn3c2CS[C@@H]3c2ccc[n+](COC(=O)C(C)(C)C)c2)c2ccc(-c3ccc(F)cc3)cc21.[Cl-]` in the records?
stdout: 20.8 min
